Target: Dual specificity mitogen-activated protein kinase kinase 5 (Homo sapiens, UniProt Q13163)
Sequence (Q13163 whole entry): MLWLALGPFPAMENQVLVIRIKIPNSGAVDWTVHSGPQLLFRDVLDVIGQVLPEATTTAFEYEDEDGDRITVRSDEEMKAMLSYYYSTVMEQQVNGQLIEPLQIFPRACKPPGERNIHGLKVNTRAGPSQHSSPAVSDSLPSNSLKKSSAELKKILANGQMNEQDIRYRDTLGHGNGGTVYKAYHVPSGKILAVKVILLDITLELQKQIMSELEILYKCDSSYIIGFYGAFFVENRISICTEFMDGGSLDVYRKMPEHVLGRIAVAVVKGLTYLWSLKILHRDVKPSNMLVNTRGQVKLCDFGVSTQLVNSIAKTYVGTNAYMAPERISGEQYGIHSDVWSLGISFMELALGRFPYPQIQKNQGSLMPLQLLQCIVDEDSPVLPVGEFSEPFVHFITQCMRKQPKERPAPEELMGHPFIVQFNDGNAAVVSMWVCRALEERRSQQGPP
Experiment: Binding affinity to partial length human MEK5 expressed in HEK293 cells by active-site-dependent competition assay
pKd: −log10 of the molar value.
reportedProperty: pKd

COc1n[nH]c2ncc(C#Cc3c(F)ccc(NS(=O)(=O)c4cccc(C#N)c4)c3F)cc12: 7.06

----------
biological target: Mitogen-activated protein kinase kinase kinase 20 (Homo sapiens, UniProt Q9NYL2)
Sequence (Q9NYL2 whole entry): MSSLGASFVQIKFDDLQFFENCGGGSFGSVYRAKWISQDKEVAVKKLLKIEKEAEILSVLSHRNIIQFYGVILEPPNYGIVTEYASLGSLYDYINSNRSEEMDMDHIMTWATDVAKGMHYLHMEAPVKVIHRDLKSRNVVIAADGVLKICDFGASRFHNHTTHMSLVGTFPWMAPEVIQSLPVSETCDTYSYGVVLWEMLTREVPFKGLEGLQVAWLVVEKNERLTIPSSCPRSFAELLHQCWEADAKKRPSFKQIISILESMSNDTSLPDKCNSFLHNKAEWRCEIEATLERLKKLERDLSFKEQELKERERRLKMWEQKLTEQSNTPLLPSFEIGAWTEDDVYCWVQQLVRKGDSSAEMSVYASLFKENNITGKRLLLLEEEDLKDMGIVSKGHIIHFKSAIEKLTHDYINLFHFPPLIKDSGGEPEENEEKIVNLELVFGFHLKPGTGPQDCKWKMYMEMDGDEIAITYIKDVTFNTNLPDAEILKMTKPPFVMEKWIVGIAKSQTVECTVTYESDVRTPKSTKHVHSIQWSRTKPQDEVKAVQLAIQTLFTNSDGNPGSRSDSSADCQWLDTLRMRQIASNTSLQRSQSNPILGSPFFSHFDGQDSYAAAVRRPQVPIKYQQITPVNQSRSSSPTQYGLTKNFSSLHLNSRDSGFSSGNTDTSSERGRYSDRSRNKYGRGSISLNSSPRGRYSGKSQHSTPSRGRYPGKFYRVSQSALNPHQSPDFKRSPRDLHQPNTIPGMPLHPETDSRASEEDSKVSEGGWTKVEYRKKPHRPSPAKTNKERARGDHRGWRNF
reportedProperty: IC50 (nM)

CCCS(=O)(=O)Nc1ccc(F)c(C(=O)c2c[nH]c3ncc(-c4ccc(Cl)cc4)cc23)c1F: 23

----------
assay: Protein binding in mouse plasma at 1 uM after 4 hrs by equilibrium dialysis method; format: ADME, cell-free; settings: read-out: PPB (converted)
reportedProperty: fraction unbound at 4 h, 1 µM

COc1n[nH]c2ncc(C#Cc3c(F)ccc(NS(=O)(=O)c4cccc(C#N)c4)c3F)cc12: 0.002

----------
target: Serine/threonine-protein kinase B-raf (Homo sapiens, UniProt P15056, V600E); experiment: Inhibition of partial length human BRAF V600E mutant expressed in HEK293 cells using Ser/Thr3 as substrate after 1 hr by FRET-based Z'-Lyte assay
Sequence (P15056 2-766 V600E limits assumed): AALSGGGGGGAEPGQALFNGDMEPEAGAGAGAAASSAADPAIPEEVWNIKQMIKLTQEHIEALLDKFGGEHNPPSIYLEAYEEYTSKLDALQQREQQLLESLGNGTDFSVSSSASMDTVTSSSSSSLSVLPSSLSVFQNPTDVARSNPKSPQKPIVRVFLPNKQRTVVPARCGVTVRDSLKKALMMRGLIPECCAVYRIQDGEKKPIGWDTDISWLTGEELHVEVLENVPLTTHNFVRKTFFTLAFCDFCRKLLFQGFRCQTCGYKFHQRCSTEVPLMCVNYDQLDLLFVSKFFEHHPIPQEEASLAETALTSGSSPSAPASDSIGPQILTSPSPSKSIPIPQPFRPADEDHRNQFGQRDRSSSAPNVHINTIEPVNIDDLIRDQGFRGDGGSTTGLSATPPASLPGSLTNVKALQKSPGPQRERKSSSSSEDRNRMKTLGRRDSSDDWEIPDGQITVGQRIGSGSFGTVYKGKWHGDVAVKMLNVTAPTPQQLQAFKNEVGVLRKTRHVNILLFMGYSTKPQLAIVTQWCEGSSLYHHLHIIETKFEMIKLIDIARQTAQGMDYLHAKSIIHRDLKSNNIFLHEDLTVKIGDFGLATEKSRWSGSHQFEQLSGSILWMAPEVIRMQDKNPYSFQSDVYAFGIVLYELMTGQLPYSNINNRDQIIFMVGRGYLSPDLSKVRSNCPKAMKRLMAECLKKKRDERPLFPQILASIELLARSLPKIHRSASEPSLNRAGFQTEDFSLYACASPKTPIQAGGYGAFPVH
reportedProperty: IC50

COc1n[nH]c2ncc(C#Cc3c(F)ccc(NS(=O)(=O)c4cccc(C#N)c4)c3F)cc12: > 10 µM

----------
biological target: Mitogen-activated protein kinase kinase kinase 20 (Homo sapiens); assay: Inhibition of N-terminal GST-tagged recombinant human full-length ZAK expressed in baculovirus infected Sf9 insect cells using MBP as substrate after 30 mins by ADP-Glo assay
pIC50: −log10 of the molar value.
# pIC50 values compiled below
reportedProperty: pIC50

COc1n[nH]c2ncc(C#Cc3c(F)ccc(NS(=O)(=O)c4cccc(C#N)c4)c3F)cc12: 8.48
COc1n[nH]c2ncc(C#Cc3c(F)ccc(NS(=O)(=O)c4cccc(Cl)c4)c3F)cc12: 8.38
O=S(=O)(Nc1ccc(F)c(C#Cc2cnc3[nH]ncc3c2)c1F)c1cccc(Cl)c1: 8.29
COc1n[nH]c2ncc(C#Cc3c(F)ccc(NS(=O)(=O)c4ccccc4Cl)c3F)cc12: 8.29
COc1cccc(S(=O)(=O)Nc2ccc(F)c(C#Cc3cnc4[nH]nc(OC)c4c3)c2F)c1: 8.12
CC(C)Oc1n[nH]c2ncc(C#Cc3c(F)ccc(NS(=O)(=O)c4cccc(Cl)c4)c3F)cc12: 7.37
O=S(=O)(Nc1ccc(F)c(C#Cc2cnc3[nH]ccc3c2)c1F)c1cccc(Cl)c1: 7.65
COc1n[nH]c2ncc(C#Cc3c(F)ccc(NS(=O)(=O)c4cccc(Br)c4)c3F)cc12: 8.30
O=S(=O)(Nc1ccc(F)c(C#Cc2ccc3[nH]ncc3c2)c1F)c1cccc(Cl)c1: 6.00
CCCS(=O)(=O)Nc1ccc(F)c(C(=O)c2c[nH]c3ncc(-c4ccc(Cl)cc4)cc23)c1F: 7.50
